Catalogue of tetramer positive cells of CD8+ T cells, stim. readings, one per entry.
# System: HCV-specific CD8+ T cells in PBMC
# Type: cell-based, human
# condition-label: subject P11, PBMC stimulated 8 to 9 days with peptides and IL-2
Write down the numeric answer in % and omit the unit.

Answered cases to consult:
ALYDVVTKL ... 25
CINGVCWTV ... 2

Moving on to the next sequence.
Task: Fill in reported tetramer positive cells of CD8+ T cells, stim. for this entry: `KLVALGINAV`
Output: 5.60

###

Listed here: items and their measured tetramer positive cells of CD8+ T cells, Ex vivo.
# System: HCV-specific CD8+ T cells in PBMC
# Assay type: cell-based, human
# condition-label: subject P2, unstimulated PBMC
Express it in %; write the number only.

CINGVCWTV ... 1.31

Task: State its tetramer positive cells of CD8+ T cells, Ex vivo: `KLVALGINAV`
Output: 0.12
